study.target: CXCR4 (Homo sapiens, UniProt P61073)
Sequence (P61073 whole entry): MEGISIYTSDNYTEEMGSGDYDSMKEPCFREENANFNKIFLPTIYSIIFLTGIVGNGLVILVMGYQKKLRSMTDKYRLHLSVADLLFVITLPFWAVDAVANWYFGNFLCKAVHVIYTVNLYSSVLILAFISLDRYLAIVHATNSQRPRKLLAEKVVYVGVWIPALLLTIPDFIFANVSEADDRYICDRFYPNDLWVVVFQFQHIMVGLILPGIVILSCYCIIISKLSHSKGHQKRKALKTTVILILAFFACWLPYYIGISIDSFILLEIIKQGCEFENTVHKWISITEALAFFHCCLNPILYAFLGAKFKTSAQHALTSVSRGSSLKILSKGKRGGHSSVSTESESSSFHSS
protocol.description: Ca2+-assay method 2 (Flexstation, SDF-1 induced calcium mobilization)
Assay type: cell-based
Design: expressed in transfected cells; host or cells: mouse pre-B cell line 300-19
test.conditions: method 2 (Ex. 54-160), mouse pre-B cell line 300-19 with human CXCR4, 10 nM SDF-1; read-out: IC50 (nM) Ca^2+ assay
Bridge positions count the residues as written; N and C are the ends. Square brackets hold non-standard residues; d marks the D form. Peptide text beside a SMILES is read from it. 2Nal = N[C@@H](Cc1ccc2ccccc2c1)C(=O)O; Cit = NC(=O)NCCC[C@H](N)C(=O)O
Entries annotated with measured IC50
A number alone suffices; assume nM.

N=C(N)NCCC[C@@H]1NC(=O)[C@@H]2CSSC[C@H](NC(=O)[C@H](Cc3ccc4ccccc4c3)NC(=O)[C@H](CCCNC(=N)N)NC(=O)[C@H](CCCNC(=N)N)NC(=O)[C@H]3CCCN3C(=O)CNC1=O)C(=O)N[C@@H](Cc1ccc(O)cc1)C(=O)N[C@@H](CCC(N)=O)C(=O)N[C@@H](CCCCN)C(=O)N1CCC[C@@H]1C(=O)N1CCC[C@H]1C(=O)N[C@@H](CC(=O)O)C(=O)N[C@@H](CCCNC(=N)N)C(=O)N[C@@H](CCCNC(N)=O)C(=O)N2 [Ex. 88] (cyclo(DR[Cit]CRG[dP]RR[2Nal]CYQK[dP]P); disulfide 4-11)	2.5
CC[C@H](C)[C@@H]1NC(=O)[C@H](CCCNC(=N)N)NC(=O)[C@H](Cc2ccc(O)cc2)NC(=O)[C@@H]2CCCN2C(=O)[C@H]2CCCN2C(=O)[C@H](CCCCN)NC(=O)[C@H](CCC(N)=O)NC(=O)[C@H](Cc2ccc(O)cc2)NC(=O)[C@@H]2CSSC[C@H](NC1=O)C(=O)N[C@@H](CCCNC(=N)N)C(=O)NCC(=O)N1CCC[C@@H]1C(=O)N[C@@H](CCCNC(=N)N)C(=O)N[C@@H](CCCNC(=N)N)C(=O)N[C@@H](Cc1ccc3ccccc3c1)C(=O)N2 [Ex. 71] (cyclo(YRICRG[dP]RR[2Nal]CYQK[dP]P); disulfide 4-11)	2.7
CSCC[C@@H]1NC(=O)[C@H](Cc2ccc(O)cc2)NC(=O)[C@@H]2CSSC[C@H](NC(=O)[C@H](CCCNC(N)=O)NC(=O)[C@H](CCCNC(=N)N)NC(=O)[C@H](Cc3ccc(O)cc3)NC(=O)[C@@H]3CCCN3C(=O)[C@H]3CCCN3C(=O)[C@H](CCCCN)NC1=O)C(=O)N[C@@H](CCCNC(=N)N)C(=O)NCC(=O)N1CCC[C@@H]1C(=O)N[C@@H](CCCNC(=N)N)C(=O)N[C@@H](CCCNC(=N)N)C(=O)N[C@@H](Cc1ccc3ccccc3c1)C(=O)N2 [Ex. 83] (cyclo(YR[Cit]CRG[dP]RR[2Nal]CYMK[dP]P); disulfide 4-11)	3.7
CC(C)C[C@@H]1NC(=O)[C@H](CCCNC(=N)N)NC(=O)[C@H](Cc2ccc(O)cc2)NC(=O)[C@@H]2CCCN2C(=O)[C@H]2CCCN2C(=O)[C@H](CCCCN)NC(=O)[C@H](CCC(N)=O)NC(=O)[C@H](Cc2ccc(O)cc2)NC(=O)[C@@H]2CSSC[C@H](NC1=O)C(=O)N[C@@H](CCCNC(=N)N)C(=O)NCC(=O)N1CCC[C@@H]1C(=O)N[C@@H](CCCNC(=N)N)C(=O)N[C@@H](CCCNC(=N)N)C(=O)N[C@@H](Cc1ccc3ccccc3c1)C(=O)N2 [Ex. 97] (cyclo(YRLCRG[dP]RR[2Nal]CYQK[dP]P); disulfide 4-11)	4.3
C[C@@H](O)[C@@H]1NC(=O)[C@H](CCCNC(=N)N)NC(=O)[C@H](Cc2ccc(O)cc2)NC(=O)[C@@H]2CCCN2C(=O)[C@H]2CCCN2C(=O)[C@H](CCCCN)NC(=O)[C@H](CCCNC(N)=O)NC(=O)[C@H](Cc2ccc(O)cc2)NC(=O)[C@@H]2CSSC[C@H](NC1=O)C(=O)N[C@@H](CCCNC(=N)N)C(=O)NCC(=O)N1CCC[C@@H]1C(=O)N[C@@H](CCCNC(=N)N)C(=O)N[C@@H](CCCNC(=N)N)C(=O)N[C@@H](Cc1ccc(O)cc1)C(=O)N2 [Ex. 146] (cyclo(YRTCRG[dP]RRYCY[Cit]K[dP]P); disulfide 4-11)	0.24
CC(C)C[C@@H]1NC(=O)[C@@H]2CCCN2C(=O)[C@H]2CCCN2C(=O)[C@H](CCCCN)NC(=O)[C@H](CCC(N)=O)NC(=O)[C@H](Cc2ccc(O)cc2)NC(=O)[C@@H]2CSSC[C@H](NC(=O)[C@H](CCCNC(N)=O)NC(=O)[C@H](CCCNC(=N)N)NC1=O)C(=O)N[C@@H](CCCNC(=N)N)C(=O)NCC(=O)N1CCC[C@@H]1C(=O)N[C@@H](CCCNC(=N)N)C(=O)N[C@@H](CCCNC(=N)N)C(=O)N[C@@H](Cc1ccc3ccccc3c1)C(=O)N2 [Ex. 144] (cyclo(LR[Cit]CRG[dP]RR[2Nal]CYQK[dP]P); disulfide 4-11)	0.18

Here's the next entry for you.
Task: Look at this compound and give its reported IC50. CN1CC(=O)N[C@@H](CCCCN)C(=O)N2CCC[C@@H]2C(=O)N2CCC[C@H]2C(=O)N[C@@H](Cc2ccc(O)cc2)C(=O)N[C@@H](CCCNC(=N)N)C(=O)N[C@@H](CCCNC(N)=O)C(=O)N[C@H]2CSSC[C@H](NC(=O)[C@H](Cc3ccc4ccccc4c3)NC(=O)[C@H](CCCNC(=N)N)NC(=O)[C@H](CCCNC(=N)N)NC(=O)[C@H]3CCCN3C(=O)CNC(=O)[C@H](CCCNC(=N)N)NC2=O)C(=O)N[C@@H](Cc2ccc(O)cc2)C1=O [Ex. 129]
Output: 10.9
